Molecular target: T1, human CX3CR1 (human, UniProt P49238 1-355)
T1 construct: overexpressed on CHO, BA/F3 or HEK293T cells; also called huCX3CR1; hCX3CR1
T1 sequence: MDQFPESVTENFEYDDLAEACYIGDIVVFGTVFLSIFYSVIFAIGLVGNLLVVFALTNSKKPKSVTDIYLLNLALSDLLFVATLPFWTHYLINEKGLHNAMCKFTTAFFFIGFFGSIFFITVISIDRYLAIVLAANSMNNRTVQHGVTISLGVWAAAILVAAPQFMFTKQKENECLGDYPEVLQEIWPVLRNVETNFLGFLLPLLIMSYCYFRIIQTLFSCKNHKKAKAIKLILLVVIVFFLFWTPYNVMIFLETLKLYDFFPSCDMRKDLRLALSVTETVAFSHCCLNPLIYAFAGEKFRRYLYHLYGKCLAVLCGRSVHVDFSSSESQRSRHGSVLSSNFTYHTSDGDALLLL
Assay: A647-fractalkine competition FACS, HEK293-huCX3CR1
property: % block

Sample records with % block:
1) CX3CR1BIIPMP54D8 (VHH, also called 54D08; CX3CR1BII54D08; not shown: C-terminal c-myc and His6 tags) VHH: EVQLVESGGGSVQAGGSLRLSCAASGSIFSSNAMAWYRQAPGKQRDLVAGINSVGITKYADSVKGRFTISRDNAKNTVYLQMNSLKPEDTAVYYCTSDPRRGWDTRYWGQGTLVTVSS : 95%
2) CX3CR1BIIPMP61G3 (VHH, also called 61G03; not shown: C-terminal c-myc and His6 tags) VHH: KVQLVESGGGSMQAGESLRLSCAASGSIFSSNAMAWYRQAPGKQRDLVAAINSVGITKYADSVKGRFTISRDNAKNTVYLQMMSLKPEDTAVYYCTSDPRRGWDTRYWGQGTQVTVSS : 96%

INPUT: // returns reported % block for input CX3CR1BIIPMP61G4 (VHH, also called 61G04; not shown: C-terminal c-myc and His6 tags) VHH: KVQLVESGGGSVQAGGSLRLSCAASGSIFSSNAMAWYRQAPGKQRDLVAAINSVGITKYADSVKGRFTISRDNAKNTVYLQMMSLKPEDTAVYYCTSDPRRGWDTRYWGQGTQVTVSS
OUTPUT: 96%
